- Test system: MOLT-4
- test protocol: NCI tumour cell line growth inhibition, 48 h
The source made the active and inactive calls. Cut-off read from the data, not from the text of the source: active = GI50 up to about 1.1 µM and inactive = higher.
reported metric: GI50

Below are worked cases with known answers.
molecule | reported metric | recorded value
COC(=O)C1CCC(=O)N1C(c1ccccc1)c1cc(OC)c(OC)c(OC)c1 (stereo not drawn) | GI50 | 31.8 µM (inactive)
Nc1cccc(Nc2nc3ccccc3nc2NS(=O)(=O)c2ccccc2)c1 | GI50 | 15.9 µM (inactive)

// below: GI50 requested for another molecule
Task item: For the molecule shown here, CCOC(=O)NC(Nc1cccc(F)c1)(C(F)(F)F)C(F)(F)F , give the reported GI50.
Reply: > 100 µM (inactive)

* * *

- Test system: OVCAR-4
- test protocol: NCI tumour cell line growth inhibition, 48 h
Activity calls are given as the source filed them. Cut-off read from the data, not from the text of the source: active = GI50 up to about 1.1 µM and inactive = higher.
Would you mind answering with one of these outcomes? true for active, false for inactive

Task item: Assay result, entry COc1ccc2nccc(NCCCN3CCN(CCCNc4ccnc5ccc(OC)cc45)CC3)c2c1 — outcome?
Reply: true

* * *

- Test system: Hs-578T
- test protocol: NCI tumour cell line growth inhibition, 48 h
The source made the active and inactive calls. No stated cut-off is given here; in the data, active = GI50 up to about 1.1 µM and inactive = higher.
Would you mind answering with one of these outcomes? active, inactive

Solved cases below.
compound | label
CCc1cccc(CC)c1Nc1nc(-c2ccccc2-c2ccccc2)cs1 | inactive
COc1cc2oc(=O)ccc2cc1C1OC(=O)C2OC21C (stereo not given) | inactive
COc1cc2c3c(n(C)c(=O)c2cc1OC)-c1cc2c(cc1/C3=C\CCCCCBr)OCO2 | inactive

Task item: Assay result, entry CCCCCC(=O)CCCCCCCC(O)CC(=O)OCC (stereo not given) — outcome?
Reply: inactive

Task item: Assay result, entry COc1ccc(OC2OC(COC(c3ccccc3)(c3ccc(OC)cc3)c3ccc(OC)cc3)C(O)C(O)C2O)cc1 (stereo not given) — outcome?
Reply: inactive

Task item: Assay result, entry O=C1CCc2ccc(O)c(c2)Oc2ccc(cc2)C(Sc2ccccc2)CCO1 (stereo not given) — outcome?
Reply: inactive

Task item: Assay result, entry COc1ccc2c(c1)O[C@@H]1C(O)Oc3cc(OC)c(OC)cc3[C@]1(O)C2=O (stereo not given in full) — outcome?
Reply: inactive

Task item: Assay result, entry COc1cc(C2c3cc4c(cc3OC(N3CCCC3)C2C)OCO4)cc(OC)c1OC (stereo not given) — outcome?
Reply: active

Task item: Assay result, entry C[C@@H](NC(=O)c1ccc(CNC(=O)/C=C/c2cccc(Oc3ccccc3)c2)cc1)c1ccccc1 — outcome?
Reply: inactive

Task item: Assay result, entry C#C[C@@]1(O)CCCC2=CC3(CC[C@]21C)SCCS3 — outcome?
Reply: inactive

Task item: Assay result, entry COc1cc2c(cc1C)NC(=O)/C2=C/c1c(Cl)[nH]c2ccccc12 — outcome?
Reply: inactive

Task item: Assay result, entry O=C1C=C(N2CCN(c3ncccn3)CC2)C(=O)c2c(O)ccc(O)c21 — outcome?
Reply: inactive

Task item: Assay result, entry CC[C@]12CCCN3CCc4c(n(c5ccccc45)C(=O)C1)[C@@H]32 [VINBURNINE] — outcome?
Reply: inactive

Task item: Assay result, entry c1ccc2nn(C3CCCCO3)nc2c1 (stereo not given) — outcome?
Reply: inactive

Task item: Assay result, entry Cc1ccc(S(=O)(=O)N2CCC[C@@H]2C(=O)O[C@@H]2CCC3CC=CC32)cc1 (stereo not given in full) — outcome?
Reply: inactive

Task item: Assay result, entry Cc1[nH]c2ccccc2c1C1=CC(=O)N(c2ccccc2)C1=O — outcome?
Reply: inactive

Task item: Assay result, entry CCN(CC)CCCn1c(=O)c2ccccc2n2c3c(=O)n(C)c(=O)n(C)c3nc12 — outcome?
Reply: inactive

Task item: Assay result, entry CC1=CC(C)(C)[C@H]2O[C@@]3(O)C[C@]4(C)[C@H]5C[C@@](C(C)C)(O[C@H]4c4ccoc4)O[C@H]4[C@]5(C3)O[C@@]1(O)[C@]24O — outcome?
Reply: inactive

Task item: Assay result, entry O=C1c2ccccc2CC12Cc1ccccc1C2 — outcome?
Reply: inactive

Task item: Assay result, entry Cc1ccc2nc3n(c2c1)C(c1c(F)cccc1F)SC3 (stereo not given) — outcome?
Reply: inactive

Task item: Assay result, entry Cc1cc2[nH]c(=NS(=O)(=O)c3cc(C)c(Cl)cc3S)[nH]c2cc1C — outcome?
Reply: inactive

Task item: Assay result, entry CSc1cc(Cl)c(C)cc1S(=O)(=O)NC(=O)NNc1ccc(F)c(Cl)c1 — outcome?
Reply: inactive

Task item: Assay result, entry Cc1ccc2ccc(O)cc2c1 — outcome?
Reply: inactive

Task item: Assay result, entry Cc1ccc(Nc2n[nH]c(NS(=O)(=O)c3cc(C(=O)Nc4ccc(Cl)cc4)c(Cl)cc3S)n2)cc1 — outcome?
Reply: inactive

Task item: Assay result, entry C=CCN(c1cc(OCc2ccccc2)c(NC(C)=O)cc1[N+](=O)[O-])S(C)(=O)=O — outcome?
Reply: inactive

Task item: Assay result, entry CC(C)c1ccc2c(c1)/C(=C1/Nc3ccccc3C1=O)C(=O)N2 — outcome?
Reply: inactive

Task item: Assay result, entry CC(C)CCCC(C)[C@H]1CCC2[C@@H]3CCC4Cc5nc6c(nc5C[C@]4(C)C3CC[C@@]21C)CC1CC[C@@H]2C(CC[C@@]3(C)C2CC[C@@H]3O)[C@@]1(C)C6 (stereo not given in full) — outcome?
Reply: inactive

The reported numbers originate from ChEMBL document CHEMBL1201862.
